This collection of values is drawn from patent US20220259193A1.

Molecular target: KCNT1 (KNa1.1, Slack) (Homo sapiens, UniProt Q5JUK3)
Test: KCNT1 patch clamp assay (SyncroPatch 384PE automated patch clamp)
Conditions: tetracycline inducible HEK-TREX cell line; perforated patch; step from −80 mV to 0 mV; room temperature; read-out: KCNT1-WT IC50
Method: KCNT1—Patch Clamp Assay Inhibition of KCNT1 (KNa1.1, Slack) was evaluated using a tetracycline inducible cell line (HEK-TREX). Currents were recorded using the SyncroPatch 384PE automated, patch clamp system. […] Current were recorded in perforated patch mode (10 μM escin) from a population of cells. […] Currents were recorded at room temperature. […] The average mean current from 3 sweeps was calculated and the % inhibition of each compound was calculated. […]
endpoint: IC50

Study these solved cases before continuing.
Report IC50 for `C[C@H](NC(=O)c1cc(C(F)F)nn1C)c1nc(-c2ccnc(C3CCCC3)c2)no1` please.
≤ 1000 nM

Report IC50 for COC(=O)c1cccc(-c2noc(C(C)NC(=O)c3cc(C(F)(F)F)nn3C)n2)c1 (stereo not shown) please.
≤ 1000 nM

Report IC50 for CC(c1nc(-c2cccc(CO)c2)no1)N(C)C(=O)c1cc(C(F)(F)F)nn1C (stereo not shown) please.
≥ 20000 nM

Report IC50 for CC(=O)Oc1cccc(-c2noc(C(C)NC(=O)c3cc(C(F)(F)F)nn3C)n2)c1 (racemic) please.
1000 to 20000 nM

Report IC50 for `CCn1cc(C(=O)N[C@@H](C)c2nc(-c3cccc(F)c3)no2)c(C(F)(F)F)n1` please.
≤ 1000 nM

Others:
Report IC50 for `CCc1cc(-c2noc([C@H](C)NC(=O)c3cc(C(F)(F)F)nn3C)n2)ccn1` please.
≤ 1000 nM

Report IC50 for Cn1nc(C2CC2)cc1C(=O)N[C@H](c1nc(-c2cccc(F)c2)no1)C1CC1 (single isomer, unassigned) please.
≤ 1000 nM

---

Target: KCNT1 (KNa1.1, Slack) (Homo sapiens, UniProt Q5JUK3)
Assay: KCNT1 patch clamp assay (SyncroPatch 384PE automated patch clamp)
Conditions: tetracycline inducible HEK-TREX cell line; perforated patch; step from −80 mV to 0 mV; room temperature; read-out: KCNT1-WT IC50
Items are presented alongside their recorded IC50.

Report IC50 for C[C@H](NC(=O)c1cn(C)nc1C(F)F)c1nc(-c2ccnc(C(F)(F)F)c2)no1 [Compound 235] please.
≤ 1000 nM

Report IC50 for CC(NC(=O)c1cc(C(F)(F)F)nn1C)c1nc(-c2cc(F)cc(F)c2)no1 (stereo not shown) [Compound 103] please.
≤ 1000 nM

Report IC50 for Cc1nn(C2CCOCC2)cc1C(=O)N[C@@H](C)c1nc(-c2cccc(F)c2)no1 [Compound 152] please.
1000 to 20000 nM

Let us examine a further case.
Report IC50 for CC[C@H](NC(=O)c1cc(C(F)F)nn1C)c1nc(-c2cccc(F)c2)no1 [Compound 120] please.
≤ 1000 nM

---

Target: KCNT1 (KNa1.1, Slack) (Homo sapiens)
Experiment: KCNT1 patch clamp assay (SyncroPatch 384PE automated patch clamp)
Conditions: tetracycline inducible HEK-TREX cell line; perforated patch; step from −80 mV to 0 mV; room temperature; read-out: KCNT1-WT IC50
pIC50: −log10 of the molar value.
Items are presented alongside their recorded pIC50.

Report pIC50 for `Cc1nn(C(C)(C)C)cc1C(=O)N[C@@H](C)c1nc(-c2cccc(F)c2)no1` please.
≥ 6.00

Report pIC50 for `C[C@H](NC(=O)c1cn(C)nc1C(F)F)c1nc(-c2cccc(F)c2)no1` please.
4.70 to 6.00

Report pIC50 for `CC[C@H](NC(=O)OC(C)(C)C)c1nc(-c2ccnc(C3CC3)c2)no1` please.
≥ 6.00

Others:
Report pIC50 for `CC[C@H](NC(=O)c1cc(C2CC2)nn1C)c1nc(-c2cccc(F)c2)no1` please.
≥ 6.00

Report pIC50 for `COCCn1nc(C(F)(F)F)cc1C(=O)N[C@@H](C)c1nc(-c2ccnc(C(F)(F)F)c2)no1` please.
≥ 6.00

Report pIC50 for Cc1nn(C(C)C)cc1C(=O)N[C@@H](C)c1nc(-c2cccc(F)c2)no1 [Compound 95] please.
4.70 to 6.00

Report pIC50 for `C[C@H](NC(=O)c1cc(C(F)(F)F)nn1C)c1nc(-c2ccnc(CN(C)C)c2)no1` please.
≤ 4.70

Report pIC50 for `COC1CN(c2cc(-c3noc([C@H](C)NC(=O)c4cc(C(F)(F)F)nn4C)n3)ccn2)C1` please.
4.70 to 6.00

Report pIC50 for `CC[C@H](NC(=O)c1cc(C(F)(F)F)nn1C(F)F)c1nc(-c2cccc(F)c2)no1` please.
≥ 6.00

Report pIC50 for `Cn1nc(C(F)(F)F)cc1C(=O)NCc1nc(-c2ccnc(C(F)(F)F)c2)no1` please.
≥ 6.00

Report pIC50 for `C[C@H](NC(=O)OC(C)(C)C)c1nc(-c2ccnc(OCC(F)F)c2)no1` please.
4.70 to 6.00

---

Target: KCNT1 (KNa1.1, Slack) (Homo sapiens)
Sequence (Q5JUK3 1-1230): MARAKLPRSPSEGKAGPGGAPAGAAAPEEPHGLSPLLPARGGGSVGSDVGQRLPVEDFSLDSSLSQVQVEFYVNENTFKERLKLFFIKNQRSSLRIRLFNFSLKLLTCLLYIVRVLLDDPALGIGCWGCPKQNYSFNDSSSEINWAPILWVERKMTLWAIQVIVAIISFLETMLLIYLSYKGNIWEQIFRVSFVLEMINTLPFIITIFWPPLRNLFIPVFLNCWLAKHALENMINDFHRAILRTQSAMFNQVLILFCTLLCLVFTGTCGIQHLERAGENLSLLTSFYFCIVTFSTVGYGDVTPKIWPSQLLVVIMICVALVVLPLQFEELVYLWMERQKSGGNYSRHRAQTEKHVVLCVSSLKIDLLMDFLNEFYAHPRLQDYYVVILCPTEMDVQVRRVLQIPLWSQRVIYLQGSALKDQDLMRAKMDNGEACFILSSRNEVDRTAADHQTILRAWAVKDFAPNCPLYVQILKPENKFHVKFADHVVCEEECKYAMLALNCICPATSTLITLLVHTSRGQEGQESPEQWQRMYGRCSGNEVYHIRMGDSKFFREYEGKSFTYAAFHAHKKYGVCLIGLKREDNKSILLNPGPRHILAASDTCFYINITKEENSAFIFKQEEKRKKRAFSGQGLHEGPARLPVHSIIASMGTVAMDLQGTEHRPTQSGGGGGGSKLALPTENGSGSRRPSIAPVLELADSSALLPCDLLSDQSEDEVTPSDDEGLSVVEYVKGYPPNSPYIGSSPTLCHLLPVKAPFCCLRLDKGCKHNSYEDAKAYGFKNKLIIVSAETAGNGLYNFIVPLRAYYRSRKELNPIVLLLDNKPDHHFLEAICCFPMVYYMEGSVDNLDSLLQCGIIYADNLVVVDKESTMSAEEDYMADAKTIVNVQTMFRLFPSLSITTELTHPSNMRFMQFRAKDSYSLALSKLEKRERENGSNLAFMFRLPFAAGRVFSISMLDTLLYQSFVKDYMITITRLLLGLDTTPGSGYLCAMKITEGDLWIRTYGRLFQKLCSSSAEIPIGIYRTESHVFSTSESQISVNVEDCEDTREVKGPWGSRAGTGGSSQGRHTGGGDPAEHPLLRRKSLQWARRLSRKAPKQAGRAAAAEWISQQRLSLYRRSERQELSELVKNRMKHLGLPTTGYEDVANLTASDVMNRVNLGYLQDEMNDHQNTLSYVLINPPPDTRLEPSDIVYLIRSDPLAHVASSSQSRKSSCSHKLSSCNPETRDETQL
Assay: KCNT1 patch clamp assay (SyncroPatch 384PE automated patch clamp)
Settings: tetracycline inducible HEK-TREX cell line; perforated patch; step from −80 mV to 0 mV; room temperature; read-out: KCNT1-WT IC50
endpoint: IC50

Study these solved cases before continuing.
Report IC50 for Cn1nc(C2CC2)cc1C(=O)NC(COCc1ccccc1)c1nc(-c2cccc(F)c2)no1 (stereo not shown) please.
1000 to 20000 nM

Report IC50 for `Cc1nn(C2CC2)cc1C(=O)N[C@@H](C)c1nc(-c2cccc(F)c2)no1` please.
1000 to 20000 nM

Report IC50 for Cn1nc(C2CC2)cc1C(=O)NC(CO)c1nc(-c2cccc(F)c2)no1 (stereo not shown) please.
≥ 20000 nM

Report IC50 for CCC(NC(=O)c1cc(C2CC2)nn1C)c1nc(-c2cccc(F)c2)no1 (stereo not shown) please.
≤ 1000 nM

Report IC50 for `C[C@@H](NC(=O)c1cn(C)nc1C(F)F)c1nc(-c2cccc(F)c2)no1` please.
≥ 20000 nM

Let us examine a further case.
Report IC50 for CC(NC(=O)c1cc(C2CC2)nn1C)c1nc(-c2cccc(F)c2)no1 (stereo not shown) please.
≤ 1000 nM
